Source listed as ChEMBL document CHEMBL4265965.

# assayExplanation: Inhibition of ERK phosphorylation in human NCI-H1975 cells at 10 uM after 24 hrs by Western blot analysis
# Type: cell-based
# testSettings: nci-h1975, 24 h
readout: inhibition (INH)

[[record]]
inputsmiles = "CC(C)c1ccc(C(=O)C(Cl)Cl)cc1[N+](=O)[O-]"
testresult = "Not Active"

[[record]]
inputsmiles = "CC(C)Oc1ccc(C(=O)C(Cl)Cl)cc1[N+](=O)[O-]"
testresult = "Not Active"

[[record]]
inputsmiles = "CCc1ccc(C(=O)C(Cl)Cl)cc1[N+](=O)[O-]"
testresult = "Not Active"


----------
# Organism: Sus scrofa
# assayExplanation: Inhibition of porcine PDK1 assessed as activation of pyruvate dehydrogenase complex at 1 uM measured after 3 mins
Activity calls are given as the source filed them. The rule behind the calls is not given here.
readout: inhibition

[[record]]
inputsmiles = "CCOc1ccc(C(=O)C(Cl)Cl)cc1[N+](=O)[O-]"
testresult = "Active"

[[record]]
inputsmiles = "CC(C)Oc1ccc(C(=O)C(Cl)(Cl)Cl)cc1[N+](=O)[O-]"
testresult = "Active"

[[record]]
inputsmiles = "O=C(c1cccs1)C(Cl)Cl"
testresult = "3.9%"

[[record]]
inputsmiles = "O=C(c1cccnc1)C(Cl)Cl"
testresult = "inactive"

[[record]]
inputsmiles = "O=C(c1ccco1)C(Cl)Cl"
testresult = "2.5%"

[[record]]
inputsmiles = "Cc1ccccc1NC(=O)C(Cl)Cl"
testresult = "inactive"

[[record]]
inputsmiles = "O=C(Nc1ccccc1)C(Cl)Cl"
testresult = "inactive"


----------
# targetEntity: [Pyruvate dehydrogenase (acetyl-transferring)] kinase isozyme 1, mitochondrial (Homo sapiens)
# assayExplanation: Inhibition of recombinant human N-terminal His6/Sumo-tagged PDK1 (29 to 436 residues) expressed in Escherichia coli BL21 at 1 uM by kinase-glo luminescence assay relative to control
The source made the active and inactive calls. No cut-off for these calls is given here.
readout: inhibition

[[record]]
inputsmiles = "COc1ccc(C(=O)C(Cl)Cl)cc1"
readout = "inhibition"
testresult = "19.7 to 67.9%"

[[record]]
inputsmiles = "O=C(c1ccc(OCCCCBr)c([N+](=O)[O-])c1)C(Cl)Cl"
readout = "inhibition"
testresult = "Active"

[[record]]
inputsmiles = "O=C(c1cccnc1)C(Cl)Cl"
readout = "inhibition"
testresult = "inactive"

[[record]]
inputsmiles = "CCCCOc1ccc(C(=O)C(Cl)Cl)cc1[N+](=O)[O-]"
readout = "inhibition"
testresult = "Active"

[[record]]
inputsmiles = "CC(C)Oc1ccc(C(=O)C(Cl)Cl)cc1[N+](=O)[O-]"
readout = "inhibition"
testresult = "84.3%"

[[record]]
inputsmiles = "CC(C)c1ccc(C(=O)C(Cl)Cl)cc1[N+](=O)[O-]"
readout = "inhibition"
testresult = "75.1%"

[[record]]
inputsmiles = "CCc1ccc(C(=O)C(Cl)Cl)cc1[N+](=O)[O-]"
readout = "inhibition"
testresult = "66.6%"

[[record]]
inputsmiles = "CCCc1ccc(C(=O)C(Cl)Cl)cc1[N+](=O)[O-]"
readout = "inhibition"
testresult = "inactive"

[[record]]
inputsmiles = "O=C(CCl)c1cccnc1"
readout = "inhibition"
testresult = "inactive"

[[record]]
inputsmiles = "Cc1ccccc1C(=O)C(Cl)Cl"
readout = "inhibition"
testresult = "inactive"

[[record]]
inputsmiles = "CCCCCOc1ccc(C(=O)C(Cl)Cl)cc1"
readout = "inhibition"
testresult = "19.7 to 67.9%"

[[record]]
inputsmiles = "O=C(c1ccccc1Cl)C(Cl)Cl"
readout = "inhibition"
testresult = "inactive"

[[record]]
inputsmiles = "CCCOc1ccc(C(=O)C(Cl)Cl)cc1"
readout = "inhibition"
testresult = "19.7 to 67.9%"

[[record]]
inputsmiles = "COc1ccc(C(=O)C(Cl)Cl)cc1Cl"
readout = "inhibition"
testresult = "47.1%"

[[record]]
inputsmiles = "O=C(c1cccs1)C(Cl)Cl"
readout = "inhibition"
testresult = "inactive"

[[record]]
inputsmiles = "O=C(c1ccc(OCCCCCBr)c([N+](=O)[O-])c1)C(Cl)Cl"
readout = "inhibition"
testresult = "Active"

[[record]]
inputsmiles = "O=C(c1ccc(OCCCBr)cc1)C(Cl)Cl"
readout = "inhibition"
testresult = "19.7 to 67.9%"

[[record]]
inputsmiles = "O=C(c1ccc(-c2ccccc2)cc1)C(Cl)Cl"
readout = "inhibition"
testresult = "19.7 to 67.9%"

[[record]]
inputsmiles = "CCCCCCOc1ccc(C(=O)C(Cl)Cl)cc1[N+](=O)[O-]"
readout = "inhibition"
testresult = "Active"

[[record]]
inputsmiles = "Cc1ccccc1NC(=O)C(Cl)Cl"
readout = "inhibition"
testresult = "inactive"

[[record]]
inputsmiles = "O=C(c1ccc(OCCBr)c([N+](=O)[O-])c1)C(Cl)Cl"
readout = "inhibition"
testresult = "Active"

[[record]]
inputsmiles = "O=C(c1ccccc1F)C(Cl)Cl"
readout = "inhibition"
testresult = "inactive"

[[record]]
inputsmiles = "O=C(c1ccncc1)C(Cl)Cl"
readout = "inhibition"
testresult = "inactive"

[[record]]
inputsmiles = "CC(C)Oc1ccc(C(=O)C(Cl)(Cl)Cl)cc1[N+](=O)[O-]"
readout = "inhibition"
testresult = "Active"

[[record]]
inputsmiles = "O=C(c1ccccc1I)C(Cl)Cl"
readout = "inhibition"
testresult = "inactive"


----------
# targetEntity: RAC-alpha serine/threonine-protein kinase (Homo sapiens, UniProt P31749)
# Sequence (P31749 whole entry): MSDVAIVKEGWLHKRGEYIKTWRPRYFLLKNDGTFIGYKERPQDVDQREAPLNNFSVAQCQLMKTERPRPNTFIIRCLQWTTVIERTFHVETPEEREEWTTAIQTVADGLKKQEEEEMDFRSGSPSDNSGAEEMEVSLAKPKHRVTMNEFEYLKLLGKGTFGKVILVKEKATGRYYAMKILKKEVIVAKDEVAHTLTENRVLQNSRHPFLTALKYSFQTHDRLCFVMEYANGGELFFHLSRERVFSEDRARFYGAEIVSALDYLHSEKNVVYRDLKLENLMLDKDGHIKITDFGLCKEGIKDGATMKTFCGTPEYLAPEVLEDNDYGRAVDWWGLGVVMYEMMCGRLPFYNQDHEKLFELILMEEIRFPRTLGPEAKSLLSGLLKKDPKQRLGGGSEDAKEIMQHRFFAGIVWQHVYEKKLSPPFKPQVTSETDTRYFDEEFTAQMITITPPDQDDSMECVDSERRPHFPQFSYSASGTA
# assayExplanation: Inhibition of AKT phosphorylation in human NCI-H1975 cells at 10 uM after 24 hrs by Western blot analysis
# Assay type: cell-based
# testSettings: nci-h1975, 24 h
readout: inhibition (INH)

[[record]]
inputsmiles = "CC(C)c1ccc(C(=O)C(Cl)Cl)cc1[N+](=O)[O-]"
testresult = "Not Active"

[[record]]
inputsmiles = "CC(C)Oc1ccc(C(=O)C(Cl)Cl)cc1[N+](=O)[O-]"
testresult = "Not Active"

[[record]]
inputsmiles = "CCc1ccc(C(=O)C(Cl)Cl)cc1[N+](=O)[O-]"
testresult = "Not Active"


----------
# Tested on: A549
# assayExplanation: Antiproliferative activity against human A549 cells assessed as inhibition of cell proliferation at 2 uM after 72 hrs by MTT assay relative to control
# Assay type: functional
# testSettings: A549, 72 h
Here the recorded inhibition at 2 µM is given for each entry.
readout: inhibition at 2 µM

[[record]]
inputsmiles = "CCc1ccc(C(=O)C(Cl)Cl)cc1"
targetentity = "A549"
testresult = "31.5%"

[[record]]
inputsmiles = "O=C(c1ccc(Cl)c(Cl)c1)C(Cl)Cl"
targetentity = "A549"
testresult = "42.1%"

[[record]]
inputsmiles = "O=C(c1ccccc1Br)C(Cl)Cl"
targetentity = "A549"
testresult = "1.4%"

[[record]]
inputsmiles = "Cc1cc(C(=O)C(Cl)Cl)ccc1Cl"
targetentity = "A549"
testresult = "13.2%"

[[record]]
inputsmiles = "O=C(c1ccc(Cl)c(C(F)(F)F)c1)C(Cl)Cl"
targetentity = "A549"
testresult = "27.6%"

[[record]]
inputsmiles = "CCc1cccc(C(=O)C(Cl)Cl)c1"
targetentity = "A549"
testresult = "22.6%"

[[record]]
inputsmiles = "O=C(c1ccc(OCCCCBr)c([N+](=O)[O-])c1)C(Cl)Cl"
targetentity = "A549"
testresult = "5.7%"

[[record]]
inputsmiles = "O=C(c1ccc(F)c([N+](=O)[O-])c1)C(Cl)Cl"
targetentity = "A549"
testresult = "7%"

[[record]]
inputsmiles = "CCCCOc1ccc(C(=O)C(Cl)Cl)cc1"
targetentity = "A549"
testresult = "20.9%"

[[record]]
inputsmiles = "CCCCCOc1ccc(C(=O)C(Cl)Cl)cc1"
targetentity = "A549"
testresult = "20.2%"

[[record]]
inputsmiles = "O=C(c1ccc(OCc2ccccc2)c([N+](=O)[O-])c1)C(Cl)Cl"
targetentity = "A549"
testresult = "29.9%"

[[record]]
inputsmiles = "O=C(c1ccc(F)cc1)C(Cl)Cl"
targetentity = "A549"
testresult = "4.7%"

[[record]]
inputsmiles = "CCCCCOc1ccc(C(=O)C(Cl)Cl)cc1[N+](=O)[O-]"
targetentity = "A549"
testresult = "32.3%"


----------
# targetEntity: UniProt:P00533
# Sequence (P00533 whole entry): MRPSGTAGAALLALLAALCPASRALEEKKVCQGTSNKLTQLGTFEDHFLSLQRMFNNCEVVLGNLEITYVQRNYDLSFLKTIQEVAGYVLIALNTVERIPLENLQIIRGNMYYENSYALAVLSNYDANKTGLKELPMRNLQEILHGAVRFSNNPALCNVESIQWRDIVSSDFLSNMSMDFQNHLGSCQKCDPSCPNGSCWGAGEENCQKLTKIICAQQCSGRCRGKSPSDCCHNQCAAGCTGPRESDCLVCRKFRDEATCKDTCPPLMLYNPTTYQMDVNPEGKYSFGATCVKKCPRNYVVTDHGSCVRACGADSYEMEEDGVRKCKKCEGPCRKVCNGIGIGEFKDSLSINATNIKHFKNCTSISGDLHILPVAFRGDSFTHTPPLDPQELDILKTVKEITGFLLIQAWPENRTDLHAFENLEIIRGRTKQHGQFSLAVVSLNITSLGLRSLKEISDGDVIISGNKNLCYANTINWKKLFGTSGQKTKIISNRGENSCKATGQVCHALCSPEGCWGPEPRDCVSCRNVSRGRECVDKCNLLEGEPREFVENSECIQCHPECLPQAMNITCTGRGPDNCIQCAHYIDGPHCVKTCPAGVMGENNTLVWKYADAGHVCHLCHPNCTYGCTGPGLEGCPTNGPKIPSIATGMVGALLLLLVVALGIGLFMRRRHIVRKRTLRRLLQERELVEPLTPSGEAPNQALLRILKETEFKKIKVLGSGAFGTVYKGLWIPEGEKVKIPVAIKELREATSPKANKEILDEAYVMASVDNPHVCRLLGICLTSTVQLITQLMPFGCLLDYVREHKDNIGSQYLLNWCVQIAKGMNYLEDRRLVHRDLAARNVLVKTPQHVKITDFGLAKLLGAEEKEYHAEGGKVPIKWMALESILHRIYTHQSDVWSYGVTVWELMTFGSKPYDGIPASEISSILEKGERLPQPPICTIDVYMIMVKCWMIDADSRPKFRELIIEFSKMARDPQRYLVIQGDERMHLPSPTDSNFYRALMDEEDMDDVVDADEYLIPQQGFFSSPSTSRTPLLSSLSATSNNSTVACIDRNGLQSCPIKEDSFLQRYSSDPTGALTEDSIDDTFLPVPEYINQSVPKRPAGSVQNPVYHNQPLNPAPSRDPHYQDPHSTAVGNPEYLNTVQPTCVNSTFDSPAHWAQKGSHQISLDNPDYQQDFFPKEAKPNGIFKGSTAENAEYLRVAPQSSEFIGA
# assayExplanation: Inhibition of EGFR phosphorylation in human NCI-H1975 cells at 10 uM after 24 hrs by Western blot analysis
# Format: cell-based
# testSettings: nci-h1975, 24 h
readout: inhibition (INH)

[[record]]
inputsmiles = "CC(C)Oc1ccc(C(=O)C(Cl)Cl)cc1[N+](=O)[O-]"
targetentity = "UniProt:P00533"
testresult = "Not Active"

[[record]]
inputsmiles = "CCc1ccc(C(=O)C(Cl)Cl)cc1[N+](=O)[O-]"
targetentity = "UniProt:P00533"
testresult = "Not Active"

[[record]]
inputsmiles = "CC(C)c1ccc(C(=O)C(Cl)Cl)cc1[N+](=O)[O-]"
targetentity = "UniProt:P00533"
testresult = "Not Active"


----------
# Species: Sus scrofa
# assayExplanation: Inhibition of porcine PDK1 assessed as activation of pyruvate dehydrogenase complex at 1 uM measured after 3 mins
Activity calls are given as the source filed them. The rule behind the calls is not given here.
Outcomes: active, inactive

[[record]]
inputsmiles = "O=C(c1ccc(OCCCCCBr)c([N+](=O)[O-])c1)C(Cl)Cl"
categorylabel = "active"

[[record]]
inputsmiles = "O=C(CCl)c1cccnc1"
categorylabel = "inactive"

[[record]]
inputsmiles = "O=C(c1ccc(OCCCBr)c([N+](=O)[O-])c1)C(Cl)Cl"
categorylabel = "active"

[[record]]
inputsmiles = "O=C(c1ccc(OCc2ccccc2)c([N+](=O)[O-])c1)C(Cl)Cl"
categorylabel = "active"

[[record]]
inputsmiles = "COc1ccc(C(=O)C(Cl)Cl)cc1[N+](=O)[O-]"
categorylabel = "active"

